Study System: ASK1 (Homo sapiens (Human), UniProt Q99683)
Sequence (Q99683 whole entry): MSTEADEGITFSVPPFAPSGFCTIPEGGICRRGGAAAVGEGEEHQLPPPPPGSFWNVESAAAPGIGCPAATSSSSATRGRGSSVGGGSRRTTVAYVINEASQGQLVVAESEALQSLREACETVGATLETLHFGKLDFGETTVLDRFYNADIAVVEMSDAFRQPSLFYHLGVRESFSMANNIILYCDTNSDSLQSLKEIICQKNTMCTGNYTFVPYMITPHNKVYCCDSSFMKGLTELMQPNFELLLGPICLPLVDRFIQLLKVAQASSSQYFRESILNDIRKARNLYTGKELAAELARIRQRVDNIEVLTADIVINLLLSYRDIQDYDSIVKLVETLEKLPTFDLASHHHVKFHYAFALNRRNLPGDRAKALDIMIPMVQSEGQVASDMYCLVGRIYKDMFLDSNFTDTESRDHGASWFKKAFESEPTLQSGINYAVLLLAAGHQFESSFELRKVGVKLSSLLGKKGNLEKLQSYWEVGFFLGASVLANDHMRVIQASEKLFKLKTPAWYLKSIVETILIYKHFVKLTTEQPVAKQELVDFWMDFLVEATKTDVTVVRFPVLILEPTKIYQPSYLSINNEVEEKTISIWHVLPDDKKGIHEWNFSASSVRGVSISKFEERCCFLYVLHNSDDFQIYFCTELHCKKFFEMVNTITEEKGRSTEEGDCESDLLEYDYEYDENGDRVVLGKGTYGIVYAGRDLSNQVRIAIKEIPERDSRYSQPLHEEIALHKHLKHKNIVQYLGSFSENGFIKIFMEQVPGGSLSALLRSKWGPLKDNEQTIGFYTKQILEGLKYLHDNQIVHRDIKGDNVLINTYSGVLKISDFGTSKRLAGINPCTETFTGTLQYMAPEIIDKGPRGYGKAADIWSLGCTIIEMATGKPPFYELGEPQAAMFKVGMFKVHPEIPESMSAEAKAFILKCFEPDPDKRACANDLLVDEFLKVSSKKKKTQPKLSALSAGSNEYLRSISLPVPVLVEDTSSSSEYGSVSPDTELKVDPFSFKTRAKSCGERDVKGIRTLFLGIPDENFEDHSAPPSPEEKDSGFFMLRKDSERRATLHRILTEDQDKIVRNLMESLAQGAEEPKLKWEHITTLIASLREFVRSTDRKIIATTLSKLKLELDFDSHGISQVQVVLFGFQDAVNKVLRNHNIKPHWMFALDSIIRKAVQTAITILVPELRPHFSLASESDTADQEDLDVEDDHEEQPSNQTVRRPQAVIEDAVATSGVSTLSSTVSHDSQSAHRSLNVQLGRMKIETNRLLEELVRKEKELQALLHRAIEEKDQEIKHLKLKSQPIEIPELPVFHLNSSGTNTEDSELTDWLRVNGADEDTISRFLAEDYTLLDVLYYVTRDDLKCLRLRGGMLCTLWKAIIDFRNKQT
pIC50: −log10 of the molar value.
Endpoint: pIC50

| Compound | Endpoint | Reported Value |
| --- | --- | --- |
| CC(C)n1nnnc1-c1cccc(NC(=O)c2cc(-n3cnc(C4CC4)c3)c(N3CCOCC3)cn2)n1 [Example 46a] | pIC50 | 8.00 to 9.00 |
| CCCC(=O)OC[C@@H](C)n1nnnc1-c1cccc(NC(=O)c2cc(-n3cnc(C4CC4)c3)c(C)cc2F)n1 [Example 24a] | pIC50 | 7.00 to 8.00 |
| CC(C)n1nnnc1-c1nc(NC(=O)c2cc(-n3cnc(C4CC4)c3)c(N3CCN(C)CC3)cn2)cs1 [Example 44a] | pIC50 | 8.00 to 9.00 |
| Cc1cc(F)c(C(=O)Nc2cccc(-c3nnnn3[C@H](C)CCO)n2)cc1-n1cnc(C2CC2)c1 [Example 22a] | pIC50 | 8.00 to 9.00 |
| Cc1cc(F)c(C(=O)Nc2cccc(-c3nnnn3[C@H](C)CO)n2)cc1-n1cnc(C(F)(F)F)c1 [Example 28a] | pIC50 | 8.00 to 9.00 |

// field: pIC50; key: CC(C)n1nnnc1-c1cccc(NC(=O)c2cc(-n3cnc(C4CC4)c3)c(C(F)(F)F)cc2F)n1 [Example 37a] ; value = 8.00 to 9.00

// field: pIC50; key: Cc1cnc(C(=O)Nc2cccc(-n3nnnc3C(C)C)n2)cc1-n1cnc(C2CC2)c1 [Example 3b] ; value = 8.00 to 9.00

// field: pIC50; key: Cc1cc(F)c(C(=O)Nc2cccc(-c3nnnn3[C@@H](C)CF)n2)cc1-n1cnc(C2CC2)c1 [Example 15a] ; value = 8.00 to 9.00

// field: pIC50; key: CC(C)n1nnnc1-c1nc(NC(=O)c2cc(-n3cnc(C4CC4)c3)c(C(F)(F)F)cn2)cs1 [Example 59a] ; value = 8.00 to 9.00

* * *

Study System: ASK1 (Homo sapiens (Human), UniProt Q99683)
Parameter: IC50. Scope: all listed entries.

Record excerpt, results attached:
| Compound | Endpoint | Reported Value |
| --- | --- | --- |
| C[C@H](CO)n1nnnc1-c1cccc(NC(=O)c2cc(-n3cnc(C4CC4)c3)c(C(F)(F)F)cn2)n1 [Example 58a] | IC50 | 1 to 10 nM |
| Cc1cc(F)c(C(=O)Nc2cccc(-n3nnnc3C(C)C)n2)cc1-n1cnc(C(F)(F)F)c1 [Example 2b] | IC50 | > 100 nM |
| Cc1cc(F)c(C(=O)Nc2cccc(-c3nnnn3C3(C)CC3)n2)cc1-n1cnc(C2CC2)c1 [Example 3a] | IC50 | 1 to 10 nM |
| Cc1cc(F)c(C(=O)Nc2cccc(-c3nnnn3[C@H](C)COC(=O)c3ccccc3)n2)cc1-n1cnc(C2CC2)c1 [Example 25a] | IC50 | > 1000 nM |
| C[C@H](CO)n1nnnc1-c1cccc(NC(=O)c2cc(-n3cnc(C4CC4)c3)c(C(F)F)cn2)n1 [Example 55a] | IC50 | 1 to 10 nM |
| CC(C)n1nnnc1-c1cccc(NC(=O)c2cc(-n3cnc(C4CC4)c3)c(N3CCCCC3)cn2)n1 [Example 40a] | IC50 | 10 to 100 nM |
| CC(C)n1nnnc1-c1nc(NC(=O)c2cc(-n3cnc(C4CC4)c3)c(N3CCCCC3)cn2)cs1 [Example 41a] | IC50 | 10 to 100 nM |
| CC(C)n1nnnc1-c1cccc(NC(=O)c2cc(-n3cnc(C4CC4)c3)c(N3CCN(C)CC3)cn2)n1 [Example 47a] | IC50 | 1 to 10 nM |
| Cc1cc(F)c(C(=O)Nc2cccc(-c3nnnn3C(C)C)c2)cc1-n1cnc(C2CC2)c1 [Example 35a] | IC50 | 10 to 100 nM |
| CC(C)n1nnnc1-c1cccc(NC(=O)c2cc(-n3cnc(C4CC4)c3)c(N3CCCC3)cn2)n1 [Example 43a] | IC50 | 1 to 10 nM |

// assay ASK1 (Homo sapiens (Human), UniProt Q99683), entry Cc1cc(F)c(C(=O)Nc2cccc(-c3nnnn3C(C)C)n2)cc1-n1cnc(C(C)(C)C)c1 [Example 29a] , IC50 value = 1 to 10 nM

// assay ASK1 (Homo sapiens (Human), UniProt Q99683), entry Cc1cc(F)c(C(=O)Nc2ccnc(-c3nnnn3C(C)C)n2)cc1-n1cnc(C2CC2)c1 [Example 34a] , IC50 value = 10 to 100 nM

// assay ASK1 (Homo sapiens (Human), UniProt Q99683), entry Cc1cnc(C(=O)Nc2cccc(-c3nnnn3C(C)C)n2)cc1-n1cnc(C(F)(F)F)c1 [Example 50a] , IC50 value = 1 to 10 nM

* * *

Study System: ASK1 (Homo sapiens (Human), UniProt Q99683)
pIC50: −log10 of the molar value.
Endpoint: pIC50

| Compound | Reported Value |
| --- | --- |
| Cc1cc(F)c(C(=O)Nc2cccc(-c3nnnn3C3CC(F)(F)C3)n2)cc1-n1cnc(C2CC2)c1 [Example 11a] | 8.00 to 9.00 |
| Cc1cnc(C(=O)Nc2cccc(-c3nnnn3C(C)C)n2)cc1-n1cnc(C(C)(C)C)c1 [Example 52a] | 8.00 to 9.00 |
| CC(C)n1nnnc1-c1nc(NC(=O)c2cc(-n3cnc(C4CC4)c3)c(C(F)F)cn2)cs1 [Example 56a] | 8.00 to 9.00 |
| Cc1cc(F)c(C(=O)Nc2cccc(-c3nnnn3[C@H](C)CO)n2)cc1-n1cnc(C2CC2)c1 | 8.00 to 9.00 |
| Cc1cc(F)c(C(=O)Nc2cccc(-c3nnnn3[C@H](C)CF)n2)cc1-n1cnc(C2CC2)c1 [Example 14a] | 8.00 to 9.00 |
| Cc1cc(F)c(C(=O)Nc2cccc(-c3nnnn3[C@H]3CCOC3)n2)cc1-n1cnc(C2CC2)c1 [Example 18a] | 8.00 to 9.00 |

// assay ASK1 (Homo sapiens (Human), UniProt Q99683), entry CC(C)n1nnnc1-c1cccc(NC(=O)c2cc(-n3cnc(C4CC4)c3)c(F)cn2)n1 [Example 39a] , pIC50 value = 8.00 to 9.00

// assay ASK1 (Homo sapiens (Human), UniProt Q99683), entry Cc1cnc(C(=O)Nc2cccc(-c3nnnn3C(C)C)n2)cc1-n1cnc(C2CC2)c1 [Example 48a] , pIC50 value = 7.00 to 8.00

* * *

Measurement record for ASK1 (Homo sapiens (Human)); quantity recorded: IC50.

Record excerpt, results attached:
| Compound | IC50 |
| --- | --- |
| Cc1cc(F)c(C(=O)Nc2cccc(-c3nnnn3C(C)C)n2)cc1-n1cnc(C(F)(F)F)c1 [Example 27a] | 10 to 100 nM |
| CC(=O)NC[C@@H](C)n1nnnc1-c1cccc(NC(=O)c2cc(-n3cnc(C4CC4)c3)c(C)cc2F)n1 [Example 20a] | 10 to 100 nM |
| Cc1cc(F)c(C(=O)Nc2cccc(-c3nnnn3CC(F)F)n2)cc1-n1cnc(C2CC2)c1 [Example 12a] | 1 to 10 nM |
| Cc1cc(F)c(C(=O)Nc2cccc(-c3nnnn3[C@@H]3CCOC3)n2)cc1-n1cnc(C2CC2)c1 [Example 17a] | 1 to 10 nM |
| Cc1cc(F)c(C(=O)Nc2cccc(-c3nnnn3C(C)C(F)(F)F)n2)cc1-n1cnc(C2CC2)c1 (stereo not drawn) [Example 16a] | 10 to 100 nM |

// assay ASK1 (Homo sapiens (Human)), entry CC(C)n1nnnc1-c1cccc(NC(=O)c2cc(-n3cnc(C4CC4)c3)c(C(F)(F)F)cn2)n1 [Example 57a] , IC50 value = 1 to 10 nM

// assay ASK1 (Homo sapiens (Human)), entry COc1cc(C)c(-n2cnc(C3CC3)c2)cc1C(=O)Nc1cccc(-c2nnnn2[C@H](C)CO)n1 [Example 61a] , IC50 value = 1 to 10 nM

// assay ASK1 (Homo sapiens (Human)), entry CC(C)n1nnnc1-c1nc(NC(=O)c2cc(-n3cnc(C4CC4)c3)c(N3CCCC3)cn2)cs1 [Example 42a] , IC50 value = 1 to 10 nM

// assay ASK1 (Homo sapiens (Human)), entry CC(C)n1nnnc1-c1cccc(NC(=O)c2cc(-n3cnc(C4CC4)c3)c(C(F)F)cc2F)n1 [Example 31a] , IC50 value = 1 to 10 nM

// assay ASK1 (Homo sapiens (Human)), entry Cc1cc(F)c(C(=O)Nc2cccc(-c3nnnn3C3CCC3)n2)cc1-n1cnc(C2CC2)c1 [Example 10a] , IC50 value = 1 to 10 nM

// assay ASK1 (Homo sapiens (Human)), entry Cc1cc(F)c(C(=O)Nc2cccc(-c3nnnn3[C@H](C)CO)n2)cc1-n1cnc(C(C)(C)C)c1 [Example 30a] , IC50 value = 1 to 10 nM

* * *

Study System: ASK1 (Homo sapiens (Human))
Endpoint: IC50

Record excerpt, results attached:
| Compound | Reported Value |
| --- | --- |
| CC(C)n1nnnc1-c1nc(NC(=O)c2cc(-n3cnc(C4CC4)c3)c(F)cn2)cs1 [Example 38a] | 1 to 10 nM |
| C[C@H](CO)n1nnnc1-c1cccc(NC(=O)c2cc(-n3cnc(C4CC4)c3)c(CO)cc2F)n1 [Example 33a] | 1 to 10 nM |
| Cc1cnc(C(=O)Nc2cccc(-c3nnnn3[C@H](C)CO)n2)cc1-n1cnc(C(C)(C)C)c1 [Example 53a] | 1 to 10 nM |
| Cc1cc(F)c(C(=O)Nc2cccc(-c3nnnn3CC(C)(C)C)n2)cc1-n1cnc(C2CC2)c1 [Example 13a] | 1 to 10 nM |
| COc1cc(C)c(-n2cnc(C3CC3)c2)cc1C(=O)Nc1cccc(-c2nnnn2C(C)C)n1 [Example 60a] | 1 to 10 nM |
| Cc1cc(F)c(C(=O)Nc2cccc(-c3nnnn3C(CO)CO)n2)cc1-n1cnc(C2CC2)c1 [Example 26a] | < 1 nM |
| CC(=O)OCC[C@@H](C)n1nnnc1-c1cccc(NC(=O)c2cc(-n3cnc(C4CC4)c3)c(C)cc2F)n1 [Example 23a] | 1 to 10 nM |
| Cc1cnc(C(=O)Nc2cccc(-c3nnnn3[C@H](C)CO)n2)cc1-n1cnc(C2CC2)c1 [Example 49a] | 1 to 10 nM |

// field: IC50; key: `Cc1cc(F)c(C(=O)Nc2cccc(-c3nnnn3CC(C)C)n2)cc1-n1cnc(C2CC2)c1` ; value = 10 to 100 nM

// field: IC50; key: `Cc1cc(F)c(C(=O)Nc2cccc(-c3nnnn3C3CCCC3)n2)cc1-n1cnc(C2CC2)c1` ; value = 1 to 10 nM
